Taken from PubChem BioAssay (NCI).

Test system: K-562 leukemia
assay comment: NCI tumour cell line growth inhibition, 48 h
Where a SMILES comes first, the peptide text is derived from it. Bridges are numbered along the chain shown (N, C = ends). Roman numbers before positions name the chains, in order. [ ]: non-standard residue; d: D form. The star is where a group is joined. Heptadecanoyl = CCCCCCCCCCCCCCCCC(=O)*; Phg = N[CH](C(=O)O)c1ccccc1
Hi there, I'd appreciate the recorded GI50 for every entry that follows.

Q: // lookup GI50 for COC(C(=O)[C@@H](O)[C@@H](C)O)[C@@H]1Cc2cc3cc(O[C@H]4C[C@@H](O[C@H]5C[C@@H](O)[C@H](O)C(C)O5)[C@H](O)C(C)O4)c(C)c(O)c3c(O)c2C(=O)[C@H]1O[C@H]1C[C@@H](O[C@H]2C[C@@H](O[C@H]3C[C@@H](O)[C@@H](O)C(C)O3)[C@@H](O)C(C)O2)[C@H](O)C(C)O1 (stereo not given in full)
A: 312 nM

Q: // lookup GI50 for C(#Cc1ccccc1C#Cc1ccccn1)c1ccc(OCCCCCCOc2ccc(C#Cc3ccccc3C#Cc3ccccn3)cc2)cc1
A: 1810 nM

Q: // lookup GI50 for CN(C)CCOc1cccc(NC2=C(Cl)C(=O)C(Nc3cccc(OCCN(C)C)c3)=C(Cl)C2=O)c1
A: 162 nM

Q: // lookup GI50 for NNc1nc(-c2ccccn2)nc2sc3c(c12)CCCCCC3
A: 3780 nM

Q: // lookup GI50 for Cn1cc(C2=C(c3cccc(NCC(O)CO)c3)C(=O)NC2=O)c2cc(Cl)ccc21 (stereo not given)
A: 2190 nM

Q: // lookup GI50 for COc1cc2c(cc1C)NC(=O)/C2=C/c1c(C)nc2sc(C)cn12
A: 35300 nM

Q: // lookup GI50 for COc1ccc2c(c1)CC[C@@H]1[C@@H]2CC[C@]2(C)c3c(cc(C(=O)c4ccccc4)c4sccc34)C[C@@H]12
A: > 100000 nM

Q: // lookup GI50 for CC(=O)O[C@@H]1CC(=O)O[C@@H]2C[C@@H](CC/C(Cl)=C/C/C=C\1C)O[C@@H]2CO
A: > 25000 nM

Q: // lookup GI50 for CCOC(=O)c1c2c(n3cccc(F)c13)C(=O)c1ncccc1C2=O
A: 357 nM

Q: // lookup GI50 for N=c1c2c(=O)n3c(nc2nc2sc4ccc(Cl)cc4n12)-c1ccccc1Sc1ccccc1-3
A: 1610 nM

Q: // lookup GI50 for CCCCCCCCCCCCCCCCC(=O)N1CCCC1C(=O)NCC(=O)NC(C(=O)N1CCCC1C(=O)NC(CO)C(=O)NC(Cc1ccc(O)cc1)C(=O)NC(CCCCNC(=O)C1CCCN1C(=O)C(CCCCN)NC(=O)C(CCCCN)NC(=O)C(CCCCN)NC(=O)C(CCCNC(=N)N)NC(=O)C(CCCCN)NC(=O)C(N)C(C)C)C(=O)NC(CC(C)C)C(=O)NC(CCCNC(=N)N)C(=O)N1CCCC1C(=O)NCC(N)=O)c1ccccc1 (stereo not given) (I: Heptadecanoyl-PG[Phg]PSYKLRPG-NH2 / II: H-VKRKKKP; amide I:7-II:C; configuration not given here)
A: 10200 nM

Q: // lookup GI50 for CSc1ccc2c(c1)C(=O)c1c-2n(CCCN=[N+]=[N-])c(=O)c2cc([N+](=O)[O-])ccc12
A: 1990 nM

Q: // lookup GI50 for Clc1cccc(Cc2cn3cc(-c4ccccc4)nc3s2)c1
A: 591 nM

Q: // lookup GI50 for CC1=C(C(=O)Nc2ccc(Cl)c(Cl)c2)C(c2cccc(O)c2)NC(=S)N1 (stereo not given)
A: 10800 nM

Q: // lookup GI50 for COc1ccc(OC)c2c3c(ncc12)-c1cc2c(cc1C3)OCO2
A: 24600 nM
